Test system: MS2 coat protein
Assay: apparent KD of MS2 coat protein; higher = weaker reporter binding
Conditions: Eterna round: R101; input ligand: FMN 200 uM
Kindly supply the reported apparent KD of MS2 coat protein values for the records listed here.
Lab book: enter the figure in nM, no units written.

INPUT: State its apparent KD of MS2 coat protein: GUCCCUACAUGAGGAUCACCCAUGUGGGCAGUAAGAAGCCCACAGGAUAUGCGAAGGAGGACAUAGCAGAAGGGUGGUGUUUAG [Reaninveri] (puzzle (switch architecture): Same State NG 3)
OUTPUT: 138

INPUT: State its apparent KD of MS2 coat protein: GUCCCUACAUGAGGAUCACCCAUGUGGGCGGUAAGGAGCCCACAGGAUAUGCGAAGGAGGACAUAGCAGAAGGGUGGUGUUCAG [Erenerbe] (puzzle (switch architecture): Same State NG 3)
OUTPUT: 33.5

INPUT: State its apparent KD of MS2 coat protein: AAAGAUUUUUAAGGAUAUCAGUGGCAAAGCCACUGAGAAGGUGAGGAUCACCCACCUACGUGACCCUGGAAACAGGGUCACGAA [#SharedSequence - ExNG1-14] (puzzle (switch architecture): Exclusion NG 1)
OUTPUT: 14.7

* * *

System: K4 kissing-loop RNA reporter;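 further: bound reporter read as fluorescence of individual clusters on recovered sequencing chips by microscopy, with normalized cluster intensities fitted with a binding model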
Experiment: apparent KD of K4 kissing-loop reporter; higher = weaker reporter binding
Settings: Eterna round: R107; input ligand: FMN 200 uM
Kindly supply the reported apparent KD of K4 kissing-loop reporter values for the records listed here.
Lab book: enter the figure in nM, no units written.

INPUT: State its apparent KD of K4 kissing-loop reporter: CCGGGCGGCCGAAGGAGCGGGCGGACCCGAGUGAUGUUCGGGUGGACCGUGAGGUCCGGUGCCCAGGUAGGUCGCGGUUCCGUCC [#2 Same State - Arginine B Attempt #6 (HarryS)]
OUTPUT: 200

INPUT: State its apparent KD of K4 kissing-loop reporter: AAAGAUGCGUCGGCCGCCACUGUUGCCAGUGAUGUUGGCAUGUAGAUGCAGUGAUGUUGCGUUUUCAGGACCGGGACGUAAGAUG [5th]
OUTPUT: 261

INPUT: State its apparent KD of K4 kissing-loop reporter: GCCCGGUGAAUCCGCCAAGAUAGACACCGUCGAGGACCGGUACGGCCGCCACUCGAGUACGAGUGAUGUUCGUACGCGGUGUCGA [Onedzate]
OUTPUT: 606

INPUT: State its apparent KD of K4 kissing-loop reporter: UUAUAUUUUAUAUUUAGAUGAUCUAUAGCACGAGGACCGGUACGGCCGCCACUCGAGUGAUGUUCGAGAGCUAUAGAUCAUCAUU [AK2.2 EXC Tryptophan A]
OUTPUT: 142

INPUT: State its apparent KD of K4 kissing-loop reporter: CCUUCCGACACGGCCGCCACUAAUUUCAUCAGAUUGCCCGGAUUUCCAAGAUAGUGAUGUUGUACUAGGACCGGGUGUCAGGUCG [theeternabot_exclusion_KL_Trp_B_16]
OUTPUT: 874

INPUT: State its apparent KD of K4 kissing-loop reporter: UUUGUAUAGGGAAGGAGCGUGAAUGAUAAAGAAUAUAGUGAUGUUAUAUAGAAGAAAGAAUCACAGGUAGGUCGCCCGGAGGAGG [SSArgB.H]
OUTPUT: 599

INPUT: State its apparent KD of K4 kissing-loop reporter: CCUAUCUGUUACGAUACCAGUCAAUGAUAUUUUAUCAAUGCCCUCACCGAGUGAUGUUCGGACCCUUGGCAGCGUCUGGGAUAGG [tyygpimullin]
OUTPUT: 160

INPUT: State its apparent KD of K4 kissing-loop reporter: CGCGACGUGGUCACGCCAGUCUCGUUAACCAAGGAUAUUGAGAAGACAAGAAGGUGGAUGUACCAUAGUGAUGUUGUGGUCAGUA [theeternabot_sameState_KL_FMN_A_17]
OUTPUT: 416

INPUT: State its apparent KD of K4 kissing-loop reporter: UUUUAAUAAAAGGAUACCAGUACAAAUAAAGUACAUUAAUAGUAGAGUGAUGUUCUAAAGUACCCUUGGCAGCUUAGAGUAAGUU [#17 K4 Theophylline B Exclusion]
OUTPUT: 120

INPUT: State its apparent KD of K4 kissing-loop reporter: CGAUGUUCCUGGGAUACCAGUCGGAGUCUCAGAGCUCGGAGUGAUGUUCUGGGAUGUUUCGGCCCUUGGCAGCUCUGGGACUCCC [#2 Exclusion - Theophylline B Attempt #23 (HarryS)]
OUTPUT: 843

INPUT: State its apparent KD of K4 kissing-loop reporter: CCGUGGCCGACGGCCGCCACUCUUACCAUCCAGCGGAGUGAUGUUCCGCCCGAGUGAUGUUCGGAGAGGACCGGGUCUGUUGUAA [Exclusion Tryptophan B GF30]
OUTPUT: 117

* * *

System: MS2 coat protein
Experiment: apparent KD of MS2 coat protein; designed switch direction (-1 OFF switch, 1 ON switch): 1; higher = weaker reporter binding
Settings: Eterna round: R95; input ligand: microRNA oligo, concentration not stated
Hi, to clarify the labels: condition met covers apparent KD of MS2 coat protein from 20 nM upward, condition not met covers anything below 20 nM.

INPUT: Quick check, apparent KD of MS2 coat protein >= 20 nM? GUUAAACAUGAGGAUCACCCAUGUAAUAAUAUGGGAGGAUAUCAGAAAUUAUGUAUUAAAUGAGAAGGCCUAAUUG [Mat - Same State 1 - Mod of Eli - D80] (puzzle: Same State 1)
OUTPUT: condition met

INPUT: Quick check, apparent KD of MS2 coat protein >= 20 nM? UCUUGGUUUUUGCUCGUUUUUUGUGUUGAACAUGAGGAUCACCCAUGUAUUGUACGGUCCAAUUUAGUAAUGGUCCG [JMF 26] (puzzle: Sensor for hsa-mir-208a)
OUTPUT: condition not met

INPUT: Quick check, apparent KD of MS2 coat protein >= 20 nM? AGAAAACAUGAGGAUCACCCAUGUAUAGUGAAUACAGGAUAUCACCGGCGGAAUAGCCAGUGAGAAGGGUGAUCGC [Aarusxe] (puzzle: Same State 1)
OUTPUT: condition not met

INPUT: Quick check, apparent KD of MS2 coat protein >= 20 nM? GGGCCAGCCUGUGCUGGGCCUUAGCAUGCACAUGAGGAUCACCCAUGUCGUGUACAUGCUUUUUGCUCGUCUUUAAA [Photon Torp-09] (puzzle: Sensor for hsa-mir-208a)
OUTPUT: condition not met

INPUT: Quick check, apparent KD of MS2 coat protein >= 20 nM? CGGCGCUGUCGAGAGGAUAUGCGGUGAUGGACAUGAGGAUCACCCAUGUUAGCGAUAGCAUCACGGUAGAAGGCUCUACGGCCUG [Soteed Omei mod 22] (puzzle: Same State 2)
OUTPUT: condition met

INPUT: Quick check, apparent KD of MS2 coat protein >= 20 nM? GGAGCCGGUACUGAGGAUAUUCAUAUUAAAACAUGAGGAUCACCCAUGUGGGCCAGAAGGCCUUGGGAGAAGGCAGACCAGCUCG [Atgexeedri - 3] (puzzle: Same State 2)
OUTPUT: condition met

INPUT: Quick check, apparent KD of MS2 coat protein >= 20 nM? AAUUCACGAGCACAGGAUAUGCUUGCCAACACAUGAGGAUCACCCAUGUCGGGCUACGAAUAAGAGCAGAAGGGUGACUCAUGAU [Atesusgela] (puzzle: Same State 2)
OUTPUT: condition not met

INPUT: Quick check, apparent KD of MS2 coat protein >= 20 nM? GUGAAACAUGAGGAUCACCCAUGUAUGACGGGCACAGGAUAUCGUGGUUCGCUCAUACUACGAGAAGGGUGAAAAG [Inordien] (puzzle: Same State 1)
OUTPUT: condition not met

INPUT: Quick check, apparent KD of MS2 coat protein >= 20 nM? UAGAGAGGAAGCGAGGAUAUCGUGGGAGGAACAUGAGGAUCACCCAUGUGUGAUGUUGAGAGGGACGAGAAGGCGCGGGAAAGUA [JR_SS2_Sub079] (puzzle: Same State 2)
OUTPUT: condition met

INPUT: Quick check, apparent KD of MS2 coat protein >= 20 nM? GUUAAACAUGAGGAUCACCCAUGUAAUAAUAUGGGAGGAUAUGCGAAAUUAAUUAAUUAAGCAGAAGGCCUAAUUG [Mat - Same State 1 - D98] (puzzle: Same State 1)
OUTPUT: condition met

* * *

Kindly supply the reported apparent KD of MS2 coat protein values for the records listed here.
Tested on: MS2 coat protein
Assay: apparent KD of MS2 coat protein; higher = weaker reporter binding
Conditions: Eterna round: R107; input ligand: theophylline 2 mM
Lab book: enter the figure in nM, no units written.

INPUT: State its apparent KD of MS2 coat protein: AAUAAUAAGGCGGCCGCCACUAAACAUGAGGAUCACCCAUGUCUCGAGGGCUUGCGUUGGGAAAGUAGGACCGGGCCAAUAAUAA [Exclusion - Tryptophan B (Freestyle 7)]
OUTPUT: 14.9

INPUT: State its apparent KD of MS2 coat protein: ACGAUAGGACACGAGGAUCACCCGUGUGAUACCAGCCUGGAAACAGGCCCUUGGCAGCACAAAUACUCCAAUAACCUAUCGAAUA [TheoAX 10 #MicroSwitchBubble #AlternativeMS2]
OUTPUT: 569

INPUT: State its apparent KD of MS2 coat protein: UUAUUUAACGGAAGGAGCGCGGAAAUUAAGGUGGGUAAACAUGAGGAUCACCCAUGUAAUCCGCAGGUAGGUCGCCGAUAUUUAU [#24 Exclusion - Arginine B]
OUTPUT: 119

INPUT: State its apparent KD of MS2 coat protein: UGUAUGGACUGAAGGAGCGGAAGAUACCAUGAGGAUCACCCAUGGAAUAAGGCGAAAGCCUUCCAGGUAGGUCGCAGUCCAUACU
OUTPUT: 23.9

INPUT: State its apparent KD of MS2 coat protein: AUAUAUAUAUAGAAAUAUAUAUAUAUGUAACGAGGACCGGUACGGCCGCCACUCGUGCCGGUGAUAACAUGAGGAUCACCCAUGU [Ex_TrypA - Every engine approves!]
OUTPUT: 20.3

Sourced from the supplement of paper PMC9170038
